Quick list: amyloid nucleation score per entry.
ASSAY_PROTOCOL: amyloid nucleation score (Sup35N fusion, yeast selection) (log enrichment); library NNK1; higher = more nucleation; inactive = no reads after selection;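 further: zero at mode of non-aggregating sequences after 7 days selection at 30°C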
Please give the numeric answer without any surrounding text.

Supply measured amyloid nucleation score of WTSMGTHTFSVRNRSGPHNG in your reply.
1.22

---

ASSAY_PROTOCOL: amyloid nucleation score (Sup35N fusion, yeast selection) (log enrichment); library NNK3; higher = more nucleation; inactive = no reads after selection
PROPERTY_MEASURED: amyloid nucleation score

Consider the reported amyloid nucleation score for these sequences:
QGHNHYVTILRFIWFLRPAM | inactive
IWPWYCKHNIFVKYHRLVER | inactive
ILAHAHYVYVALARWPTYGY | -0.35
WTSHALKISPLNICNQLEHV | -0.09
VGGIRLRIE | inactive

Quick one: give measured amyloid nucleation score for SFDARCGWKLNMFYSCSFIQ
-0.009

Given the sequence DVGYSDMLVA , write its reported amyloid nucleation score.
inactive

Answer with the recorded amyloid nucleation score of PIAFSIALPRVVCRQ only.
inactive

---

ASSAY_PROTOCOL: amyloid nucleation score (Sup35N fusion, yeast selection) (log enrichment); library NNK1; higher = more nucleation; inactive = no reads after selection
PROPERTY_MEASURED: amyloid nucleation score

Some entries whose results are on file:
RSNCWFEV | 0.035
LVSQVFNVQRYGGRTVPQSF | 0.364
NPGEWYNSYRSNGEGMRLYE | -0.288
LRIERMWVWVSA | 0.556
GPSLGVIFKEIWFYYG | 0.541
ILNGSPKWNGWRTITCSAVS | 0.667
GLYSTGNFDVGRSLCDHMGS | -0.492
SHIMRRFLWVELAQ | -1.18
FNRKISFFCN | -0.393

Moving on to the next sequence.
Please report the measured amyloid nucleation score for LPCHWVHVQGHHWLRLDVMC
0.2

---

ASSAY_PROTOCOL: amyloid nucleation score (Sup35N fusion, yeast selection) (log enrichment); library NNK3; higher = more nucleation; inactive = no reads after selection
PROPERTY_MEASURED: amyloid nucleation score

Reference set, count: 8
QRIESGPLDY | inactive
IISHKQRSRVIVCSGS | inactive
IDCLFRLAGYWSALWTFVLF | inactive
GTYFSCVYGTKKL | inactive
RLIILNVFVSDNTNWLHRIH | 1.37
IRSCIIRSFTYMLGLH | inactive
TVNQKPY | inactive
TSTSAYILGPVTQ | inactive

Note: attention shifts to another entry.
# return recorded amyloid nucleation score for input SLLGSRNRRSGWTQFVKLVW
inactive

---

ASSAY_PROTOCOL: amyloid nucleation score (Sup35N fusion, yeast selection) (log enrichment); library NNK2; higher = more nucleation; inactive = no reads after selection
If the reported amyloid nucleation score equals or exceeds -0.2, assign Satisfied. If not, assign Not satisfied.

For orientation, consider the following solved cases.
RGSVVLNSVWVMLDMYCLLP | Satisfied
WVVVDNHLS | Not satisfied
TSYYLDL | Not satisfied
ACKRGTFQWNACLSPGSCGR | Satisfied
VYEKVVLGKDFVM | Not satisfied
SVNWTRLRECKPWMQVFNRG | Satisfied
TSLMRYIPMGHLKAWIFLSI | Satisfied

Field: next substance
Textbook exercise: given the entry CTTYPAFLSSGNPNFIMRFL , state whether its amyloid nucleation score is greater than or equal to -0.2.
Satisfied

---

ASSAY_PROTOCOL: amyloid nucleation score (Sup35N fusion, yeast selection) (log enrichment); library NNK1; higher = more nucleation; inactive = no reads after selection
Field: class. Source value: amyloid nucleation score. Ranges: 0: < -0.2; 1: ≥ -0.2 and < 0.9; 2: ≥ 0.9

// below: answered substances
TCRFTHLLFWYFK | 1
RACLQFRQLVGDRLG | 2
YFVLALWFIGCYECLYLWLC | 2
KVIRLIFRGY | 1
YLDGTNSMNAEGNLLNKAPV | 1

Which amyloid nucleation score band matches IELDYYIINIVWPPAGNYRH ?
2

Where would VFLSIGTERMILLIVWHCLN land among the classes by reported amyloid nucleation score?
0

Textbook exercise: identify the category of the substance given here, GAGIENPSASVIMKREWEVL , according to its measured value.
1

Form: Item = FRSFKNTY ; Class = ?
0

# bin lookup: classify RFSWMQLWCECVLHY by its amyloid nucleation score
1

---

ASSAY_PROTOCOL: amyloid nucleation score (Sup35N fusion, yeast selection) (log enrichment); library NNK3; higher = more nucleation; inactive = no reads after selection
PROPERTY_MEASURED: amyloid nucleation score

Field: example entries. Status: answers known.
KYITHLFFFILSERYCWFPM | -0.341
SMYIIMVCSSVSCWYFNRGH | 0.94
QVSFFSQIRV | inactive
SNRGYTKRYF | inactive
LLAWFHNCRLRLI | inactive

Supply reported amyloid nucleation score belonging to this sequence: NSRYQILITLDLC
inactive

Tell me amyloid nucleation score reported for WLFLLRPRAGSTHPSTHLDF
0.823

Determine its reported amyloid nucleation score: PCLFSQDRVRKTRSHKVNAE
inactive

Find the measured amyloid nucleation score of TISPFLINMFWLSCTLMSQE and report it.
0.558

Look up and state reported amyloid nucleation score for YSYNQIWFLLV
inactive

Complete the entry with amyloid nucleation score for SFESVVYYSWRFVAKFKFWT
inactive

---

ASSAY_PROTOCOL: amyloid nucleation score (Sup35N fusion, yeast selection) (log enrichment); library NNK1; higher = more nucleation; inactive = no reads after selection
Binary call on amyloid nucleation score: 1 from -0.06 upward, -1 beneath that.

Worked cases, answers included:
DVKCAVTLVL | 1
WASGRGSSVRIKQLPHDRQQ | -1
FLAYLPSEKC | -1
MTMKLFRQD | 1

Please tell me: is the sequence TVLNFKAQYRSSPMLAH at or over -0.06 in terms of amyloid nucleation score?
1

---

ASSAY_PROTOCOL: amyloid nucleation score (Sup35N fusion, yeast selection) (log enrichment); library NNK1; higher = more nucleation; inactive = no reads after selection
PROPERTY_MEASURED: amyloid nucleation score

RSTISGWR | inactive
NDCKSQRSRNSMGCQ | inactive
LMYPSGQSKRWIYRLYMGYR | inactive

---

ASSAY_PROTOCOL: amyloid nucleation score (Sup35N fusion, yeast selection) (log enrichment); library NNK1; higher = more nucleation; inactive = no reads after selection
Listed next: entries and their corresponding amyloid nucleation score.
// return a plain number; no unit text

LVLAENCR | -0.672
LSLFCVLMY | 2.1
AVSSVVPGTCL | 0.55
MSLNRDNDYSKLLFGSKVSQ | 0.477

Specify measured amyloid nucleation score for RFDSFAMVYDNMWVRCLNVR .
-0.303

Name the recorded amyloid nucleation score of the item FEHVPLFTTMPIEEFYRIVY in your answer.
0.262

Indicate the recorded amyloid nucleation score value for this substance: IYGWVHTSMRMRVGTAVLPR
0.375

For the substance SWFNISAVLENMGRYS , report amyloid nucleation score.
0.26

Complete the entry with amyloid nucleation score for CRGFFLGFPIHQVKAFCFCR
-0.047

Specify reported amyloid nucleation score for the substance shown: YLINLRFCEREAGFNFLLGR
-1.12

# return recorded amyloid nucleation score for input VYMSIRYRGSDNIRICVSVR
-0.13

Recall and state the measured amyloid nucleation score for HWVDLVGESNNSISFAVVFC .
4.9

State its amyloid nucleation score: TRTESVMVLWRRMAVGGCGR
0.362

Give me measured amyloid nucleation score, please, for this substance: ALRRIGSFVVHLDIRAVSQT
1.09

Output measured amyloid nucleation score for this item: TLFPVRNTMMFLESYS
-0.742

Give the reported amyloid nucleation score for this substance. RNQDLLHFLVVGIAVKKYNY
-0.598

Return amyloid nucleation score for the following substance: DEKMVSVSSESGRLHKNVKC
1.11

Identify measured amyloid nucleation score corresponding to HSNCVLVVDMLAQWLMRAGD
0.384

Fill in amyloid nucleation score for record RKHIRYTLVREIPLKSFSQY
0.043

Give the reported value of amyloid nucleation score for this record: TRGTPFEYLATGG
0.607

State its amyloid nucleation score for this substance: IPGGLNKERPYWYCTQMAGT
1.25

Query amyloid nucleation score for SGYDDFWMTWTAKRVWHRAR
-0.436

Give me measured amyloid nucleation score, please, for this substance: CSSIWHCPVYDVITLM
0.282

---

ASSAY_PROTOCOL: amyloid nucleation score (Sup35N fusion, yeast selection) (log enrichment); library NNK3; higher = more nucleation; inactive = no reads after selection
PROPERTY_MEASURED: amyloid nucleation score

// solved cases for amyloid nucleation score follow
YSCSYNTSTN | -0.52
SLIGNSDSPWFLRQTCTYTK | inactive
FIRFWASVSTNCRLPFLLNR | inactive
GVTCKHRPAKYVQDRMNF | inactive

Supply reported amyloid nucleation score belonging to this substance: VIWLGRRCTFLHKPTSRGQW
0.021

Tell me amyloid nucleation score reported for YRKWGCWHRTFRLIYCTVVL
inactive

Answer with reported amyloid nucleation score of YLISNVFIVLSVDLCDVLGL
2.44

The reported measurements were obtained from the supplement of paper PMC12042874.
